I'd appreciate it if you could supply half-life values for the items below.
- measurement_protocol: Half life in Sprague-Dawley rat plasma at 2 mg/kg, po by HPLC-MS/MS analysis
- Type: ADME, organism-based
- Set-up: dose 2 mg/kg, route oral
- condition_context: Sprague-Dawley, plasma
Answers are plain numbers, in h.

Example entries and their recorded answers appear below.
{"columns": ["smiles_text", "numeric_result"],
 "data": [
  ["CC(C)Nc1nc2c(C(=O)N(C)C)c(Cl)c(Cl)cc2n1C1CCN(c2ccc(C3(C#N)CCOCC3)cc2)CC1", 2.1],
  ["CC(C)Nc1nc2c(C(=O)N(C)C)c(Cl)c(Cl)cc2n1C1CCN(c2ccc(C(C)(C)C)cc2)CC1", 3.7],
  ["CC(C)Nc1nc2c(C(=O)N(C)C)c(Cl)c(Cl)cc2n1C1CCN(c2ccc(C3CCCCC3)cc2)CC1", 2.8],
  ["CC(C)Nc1nc2c(C(=O)N(C)C)c(Cl)c(Cl)cc2n1C1CCN(c2ccc(C(C)(C)C#N)cc2)CC1", 1.6],
  ["CC(C)Nc1nc2c(C(=O)N(C)C)c(Cl)c(Cl)cc2n1C1CCN(c2ccc(OC(C)C)cc2)CC1", 2.1],
  ["Cc1ccc(N2CCC(n3c(NC(C)C)nc4c(C(=O)N(C)C)c(Cl)c(Cl)cc43)CC2)cc1", 1.6]
]}

Reported half-life ( Cc1cccc(N2CCC(n3c(NC(C)C)nc4c(C(=O)N(C)C)c(Cl)c(Cl)cc43)CC2)c1 ) = 3.2

* * *

- target_under_test: Transient receptor potential cation channel subfamily V member 4 (Rattus norvegicus)
- Sequence (Q9ERZ8 whole entry): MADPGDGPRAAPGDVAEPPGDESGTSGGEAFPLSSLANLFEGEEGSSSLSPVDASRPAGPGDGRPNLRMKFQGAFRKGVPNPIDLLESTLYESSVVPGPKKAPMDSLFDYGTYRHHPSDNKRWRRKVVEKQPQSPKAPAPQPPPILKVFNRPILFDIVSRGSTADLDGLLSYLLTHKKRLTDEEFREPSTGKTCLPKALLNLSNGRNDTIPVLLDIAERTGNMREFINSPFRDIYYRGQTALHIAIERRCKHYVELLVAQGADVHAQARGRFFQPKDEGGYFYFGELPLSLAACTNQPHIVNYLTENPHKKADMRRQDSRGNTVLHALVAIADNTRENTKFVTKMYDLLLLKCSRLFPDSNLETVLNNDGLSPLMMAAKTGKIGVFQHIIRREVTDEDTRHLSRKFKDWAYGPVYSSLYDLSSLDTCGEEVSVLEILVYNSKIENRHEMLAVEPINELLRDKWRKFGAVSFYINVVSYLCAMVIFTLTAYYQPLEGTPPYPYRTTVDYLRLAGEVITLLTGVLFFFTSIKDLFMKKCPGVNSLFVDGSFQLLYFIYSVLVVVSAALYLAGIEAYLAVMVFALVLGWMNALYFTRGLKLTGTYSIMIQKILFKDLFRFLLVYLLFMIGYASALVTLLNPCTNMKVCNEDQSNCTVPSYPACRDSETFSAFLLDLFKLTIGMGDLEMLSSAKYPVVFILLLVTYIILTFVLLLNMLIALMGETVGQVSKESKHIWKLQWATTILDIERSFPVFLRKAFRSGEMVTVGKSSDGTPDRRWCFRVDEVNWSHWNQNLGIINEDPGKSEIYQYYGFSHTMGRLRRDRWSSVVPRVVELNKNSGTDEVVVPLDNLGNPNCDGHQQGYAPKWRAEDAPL
measurement_kind: IC50
The reply should consist of the numeric value with the unit placed after it.

Reported IC50 ( CC(C)Nc1nc2c(C(=O)N(C)C)c(Cl)c(Cl)cc2n1C1CCN(c2ccc(C(C)(C)C#N)cc2)CC1 ) = 0.032 µM

* * *

- measurement_protocol: Clearance in Sprague-Dawley rat plasma at 1 mg/kg, iv by HPLC-MS/MS analysis
- Assay type: ADME, organism-based
- Set-up: dose 1 mg/kg, route intravenous
Label criterion not met if clearance falls below 20 mL/min/kg; label criterion met in every other case.

Sample answers from the record:
{"columns": ["smiles_text", "answer_label"],
 "data": [
  ["Cc1cccc(N2CCC(n3c(NC(C)C)nc4c(C(=O)N(C)C)c(Cl)c(Cl)cc43)CC2)c1", "criterion not met"],
  ["CC(C)Nc1nc2c(C(=O)N(C)C)c(Cl)c(Cl)cc2n1C1CCN(c2ccc(C(C)(C)C#N)cc2)CC1", "criterion not met"],
  ["Cc1ccc(N2CCC(n3c(NC(C)C)nc4c(C(=O)N(C)C)c(Cl)c(Cl)cc43)CC2)cc1", "criterion not met"],
  ["CC(C)Nc1nc2c(C(=O)N(C)C)c(Cl)c(Cl)cc2n1C1CCN(c2ccc(C3(C#N)CCOCC3)cc2)CC1", "criterion met"],
  ["CC(C)Nc1nc2c(C(=O)N(C)C)c(Cl)c(Cl)cc2n1C1CCN(c2ccc(OC(C)C)cc2)CC1", "criterion met"],
  ["CC(C)Nc1nc2c(C(=O)N(C)C)c(Cl)c(Cl)cc2n1C1CCN(c2ccc(C3CCCCC3)cc2)CC1", "criterion not met"]
]}

Q. Could you please find out whether CC(C)Nc1nc2c(C(=O)N(C)C)c(Cl)c(Cl)cc2n1C1CCN(c2ccc(C(C)(C)C)cc2)CC1 has clearance that meets 20 mL/min/kg or exceeds it?
A. criterion met

* * *

- target_under_test: Transient receptor potential cation channel subfamily V member 4 (Homo sapiens)
- Sequence (Q9HBA0 whole entry): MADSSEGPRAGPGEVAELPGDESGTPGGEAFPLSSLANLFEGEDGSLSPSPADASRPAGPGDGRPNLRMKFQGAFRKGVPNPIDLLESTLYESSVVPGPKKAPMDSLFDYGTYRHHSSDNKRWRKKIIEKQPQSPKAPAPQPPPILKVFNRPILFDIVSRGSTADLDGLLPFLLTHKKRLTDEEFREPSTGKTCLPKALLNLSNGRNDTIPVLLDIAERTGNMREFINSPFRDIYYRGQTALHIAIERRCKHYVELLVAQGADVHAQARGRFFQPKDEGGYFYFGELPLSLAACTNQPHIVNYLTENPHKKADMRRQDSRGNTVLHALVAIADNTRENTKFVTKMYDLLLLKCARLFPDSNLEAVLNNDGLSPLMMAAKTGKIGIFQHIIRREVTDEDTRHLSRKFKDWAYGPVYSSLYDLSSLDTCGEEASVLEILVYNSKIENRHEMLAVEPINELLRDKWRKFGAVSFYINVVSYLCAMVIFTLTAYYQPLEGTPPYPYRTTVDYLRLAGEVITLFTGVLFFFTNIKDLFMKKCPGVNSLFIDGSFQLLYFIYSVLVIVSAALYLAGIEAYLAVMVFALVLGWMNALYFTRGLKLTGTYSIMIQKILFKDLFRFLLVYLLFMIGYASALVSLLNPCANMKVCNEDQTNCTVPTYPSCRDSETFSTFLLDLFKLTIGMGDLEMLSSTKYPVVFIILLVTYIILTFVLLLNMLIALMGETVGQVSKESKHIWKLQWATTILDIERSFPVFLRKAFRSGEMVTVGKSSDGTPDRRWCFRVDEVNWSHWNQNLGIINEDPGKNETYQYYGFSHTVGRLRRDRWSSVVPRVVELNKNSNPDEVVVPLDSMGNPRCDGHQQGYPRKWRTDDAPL
- measurement_protocol: Antagonist activity at human recombinant TRPV4 expressed in BacMam virus infected HEK MSRII cells assessed as inhibition of GSK634775-induced calcium […] treated 10 mins prior to TRPV4 agonist, GSK634775 by FLIPR assay
I'd appreciate it if you could supply pIC50 values for the items below.
One number for each entry, as −log10 of the molar value.

Example entries and their recorded answers appear below.
{"columns": ["smiles_text", "target_under_test", "numeric_result"],
 "data": [
  ["CC(C)Nc1nc2c(C(=O)N(C)C)c(Cl)c(Cl)cc2n1C1CCN(c2ccc(C(C)(C)C#N)cc2)CC1", "Transient receptor potential cation channel subfamily V member 4 (Homo sapiens)", 7.50],
  ["Cc1ccc(N2CCC(n3c(NC(C)C)nc4c(C(=O)N(C)C)c(Cl)c(Cl)cc43)CC2)cc1", "Transient receptor potential cation channel subfamily V member 4 (Homo sapiens)", 6.90],
  ["CC(C)Nc1nc2c(C(=O)N(C)C)c(Cl)c(Cl)cc2n1C1CCN(c2ccc(C3(C#N)CCOCC3)cc2)CC1", "Transient receptor potential cation channel subfamily V member 4 (Homo sapiens)", 8.49],
  ["CC(C)Nc1nc2c(C(=O)N(C)C)c(Cl)c(Cl)cc2n1C1CCN(Cc2ccccc2)CC1", "Transient receptor potential cation channel subfamily V member 4 (Homo sapiens)", 6.00],
  ["Cc1cccc(N2CCC(n3c(NC(C)C)nc4c(C(=O)N(C)C)c(Cl)c(Cl)cc43)CC2)c1", "Transient receptor potential cation channel subfamily V member 4 (Homo sapiens)", 6.90]
]}

List pIC50 for every entry below, keeping the order given.
1. CC(C)Nc1nc2c(C(=O)N(C)C)c(Cl)c(Cl)cc2n1C1CCN(c2ccc(OC(C)C)cc2)CC1
2. CC(C)Nc1nc2c(C(=O)N(C)C)c(Cl)c(Cl)cc2n1C1CCN(c2ccccc2)CC1
3. CC(C)Nc1nc2c(C(=O)N(C)C)c(Cl)c(Cl)cc2n1CC1CCN(c2ccccc2)CC1
4. CC(C)Nc1nc2c(C(=O)N(C)C)c(Cl)c(Cl)cc2n1C1CCN(S(=O)(=O)c2ccc(Cl)cc2)CC1

A.
1. 7.90
2. 6.70
3. 5.30
4. 5.40

List pIC50 for every entry below, keeping the order given.
1. CC(C)Nc1nc2c(C(=O)N(C)C)c(Cl)c(Cl)cc2n1C1CCN(c2ccc(C(C)(C)C)cc2)CC1
2. CC(C)Nc1nc2c(C(=O)N(C)C)c(Cl)c(Cl)cc2n1-c1ccc(N2CCCCC2)cc1

A.
7.30
6.20

List pIC50 for every entry below, keeping the order given.
1. CC(C)Nc1nc2c(C(=O)N(C)C)c(Cl)c(Cl)cc2n1C1CCN(c2ccc(C3CCCCC3)cc2)CC1
2. COC(=O)C(C)(C)c1ccc(N2CCC(n3c(NC(C)C)nc4c(C(=O)N(C)C)c(Cl)c(Cl)cc43)CC2)cc1
3. CC(C)Nc1nc2c(C(=O)N(C)C)c(Cl)c(Cl)cc2n1C1CCN(C(=O)c2ccc(C(C)(C)C)cc2)CC1
4. CC(C)Nc1nc2c(C(=O)N(C)C)c(Cl)c(Cl)cc2n1C1CCN(C(=O)Nc2ccccc2)CC1

A.
1: 7.50; 2: 7.80; 3: 5.90; 4: 5.60
